Cited source: the supplement of paper PMC7877785

self-splicing fitness (ln) for assorted sequences
test.summary: self-splicing fitness, log relative to wild type (ln ratio); higher = more splicing; Tetrahymena group I intron in knt gene, E. coli kanamycin selection, DiMSum; sequences stand for … in CUCUCU…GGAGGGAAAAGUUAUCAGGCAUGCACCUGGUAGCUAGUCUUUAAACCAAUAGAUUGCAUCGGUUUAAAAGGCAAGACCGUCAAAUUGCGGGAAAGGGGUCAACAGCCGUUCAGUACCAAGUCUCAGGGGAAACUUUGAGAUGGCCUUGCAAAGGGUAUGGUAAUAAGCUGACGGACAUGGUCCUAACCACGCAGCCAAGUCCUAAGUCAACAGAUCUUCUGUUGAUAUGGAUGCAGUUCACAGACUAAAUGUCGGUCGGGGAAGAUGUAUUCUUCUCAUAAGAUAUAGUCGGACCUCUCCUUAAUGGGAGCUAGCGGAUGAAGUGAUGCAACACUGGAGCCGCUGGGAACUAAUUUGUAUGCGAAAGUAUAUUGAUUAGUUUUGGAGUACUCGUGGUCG;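 note: selection with 25 µg/mL kanamycin versus none on LB agar overnight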
condition.label: 30 °C

Examples with their reported self-splicing fitness (ln) follow.
{"input.sequence": "UGGAAGCAAUAUUACGGAUC", "self-splicing fitness (ln)": -2.47}
{"input.sequence": "GGAAAGCAAUAUUACGGCGC", "self-splicing fitness (ln)": -0.392}
{"input.sequence": "AAAAAGCAAUAUUACGGCAC", "self-splicing fitness (ln)": -0.499}
{"input.sequence": "GGGCAGCAAUAUUACGAAUU", "self-splicing fitness (ln)": -0.318}
{"input.sequence": "CUAAAGCAAUAUUACGUGCG", "self-splicing fitness (ln)": -0.674}
{"input.sequence": "CCUAAGCAAUAUUACGGUCA", "self-splicing fitness (ln)": -3.95}
{"input.sequence": "AUGAAGCAAUAUUACGCUCG", "self-splicing fitness (ln)": -0.0634}
{"input.sequence": "CGGAAGCAAUAUUACGCCAG", "self-splicing fitness (ln)": -0.858}
{"input.sequence": "GAUCAGCAAUAUUACGGCUG", "self-splicing fitness (ln)": -3.29}
{"input.sequence": "UACCAGCAAUAUUACGCAAG", "self-splicing fitness (ln)": -2.3}

// moving on: another record for self-splicing fitness (ln)
Query (sequence): UGGAAGCAAUAUUACGGCUU ; field requested: self-splicing fitness (ln)
-2.94

---

test.summary: self-splicing fitness, log relative to wild type (ln ratio); higher = more splicing; Tetrahymena group I intron in knt gene, E. coli kanamycin selection, DiMSum; sequences stand for … in CUCUCU…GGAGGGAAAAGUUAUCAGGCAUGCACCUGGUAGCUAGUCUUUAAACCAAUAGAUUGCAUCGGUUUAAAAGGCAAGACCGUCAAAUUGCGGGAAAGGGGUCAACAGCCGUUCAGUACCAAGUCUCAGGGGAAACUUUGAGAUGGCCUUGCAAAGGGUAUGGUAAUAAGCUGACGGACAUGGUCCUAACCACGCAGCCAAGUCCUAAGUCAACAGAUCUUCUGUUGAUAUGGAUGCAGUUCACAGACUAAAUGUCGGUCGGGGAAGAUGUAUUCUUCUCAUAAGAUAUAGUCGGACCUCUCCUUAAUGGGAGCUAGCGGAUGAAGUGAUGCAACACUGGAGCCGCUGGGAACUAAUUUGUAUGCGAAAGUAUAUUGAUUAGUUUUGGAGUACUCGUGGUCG
condition.label: 30 °C
readout.type: self-splicing fitness (ln)
Give only the figure.

Examples with their reported self-splicing fitness (ln) follow.
{"input.sequence": "CCGGAGCAAUAUUACGACAG", "result.number": -0.593}
{"input.sequence": "CGACAGCAAUAUUACGUCGA", "result.number": -3.04}
{"input.sequence": "CGCCAGCAAUAUUACGUUGG", "result.number": -2.64}

Query (sequence): AAGGAGCAAUAUUACGCGUC ; field requested: self-splicing fitness (ln)
-2.96

Query (sequence): GCGCAGCAAUAUUACGCCCA ; field requested: self-splicing fitness (ln)
0.169

Query (sequence): UGAAAGCAAUAUUACGAGUG ; field requested: self-splicing fitness (ln)
-0.522

Query (sequence): UUCCAGCAAUAUUACGUGUA ; field requested: self-splicing fitness (ln)
-0.989

Query (sequence): CGGGAGCAAUAUUACGUGAG ; field requested: self-splicing fitness (ln)
-1.03

---

self-splicing fitness (ln) for assorted sequences
test.summary: self-splicing fitness, log relative to wild type (ln ratio); higher = more splicing; Tetrahymena group I intron in knt gene, E. coli kanamycin selection, DiMSum; sequences stand for … in CUCUCU…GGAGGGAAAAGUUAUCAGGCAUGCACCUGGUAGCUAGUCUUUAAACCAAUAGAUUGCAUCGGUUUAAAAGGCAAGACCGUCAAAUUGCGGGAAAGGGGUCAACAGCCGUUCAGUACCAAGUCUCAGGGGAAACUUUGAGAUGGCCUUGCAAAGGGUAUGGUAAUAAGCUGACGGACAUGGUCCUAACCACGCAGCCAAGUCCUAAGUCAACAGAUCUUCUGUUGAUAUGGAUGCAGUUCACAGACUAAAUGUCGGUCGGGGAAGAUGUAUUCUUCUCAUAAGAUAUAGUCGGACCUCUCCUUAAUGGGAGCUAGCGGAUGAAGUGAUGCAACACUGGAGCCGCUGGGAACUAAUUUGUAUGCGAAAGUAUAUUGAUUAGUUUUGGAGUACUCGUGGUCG
condition.label: 37 °C

{"input.sequence": "CCGCAGCAAUAUUACGGAUA", "self-splicing fitness (ln)": -2.91}
{"input.sequence": "AACAAGCAAUAUUACGGCCU", "self-splicing fitness (ln)": 0.355}
{"input.sequence": "CUUAAGCAAUAUUACGCUUG", "self-splicing fitness (ln)": -2.78}
{"input.sequence": "ACUUAGCAAUAUUACGGACA", "self-splicing fitness (ln)": -0.798}

Query (sequence): GGGCAGCAAUAUUACGAUAU ; field requested: self-splicing fitness (ln)
-0.877

Query (sequence): UACAAGCAAUAUUACGGUUU ; field requested: self-splicing fitness (ln)
-0.738

Query (sequence): GUCAAGCAAUAUUACGUGGG ; field requested: self-splicing fitness (ln)
-2.23

Query (sequence): ACGAAGCAAUAUUACGGACC ; field requested: self-splicing fitness (ln)
-0.661

---

test.summary: self-splicing fitness, log relative to wild type (ln ratio); higher = more splicing; Tetrahymena group I intron in knt gene, E. coli kanamycin selection, DiMSum; sequences stand for … in CUCUCU…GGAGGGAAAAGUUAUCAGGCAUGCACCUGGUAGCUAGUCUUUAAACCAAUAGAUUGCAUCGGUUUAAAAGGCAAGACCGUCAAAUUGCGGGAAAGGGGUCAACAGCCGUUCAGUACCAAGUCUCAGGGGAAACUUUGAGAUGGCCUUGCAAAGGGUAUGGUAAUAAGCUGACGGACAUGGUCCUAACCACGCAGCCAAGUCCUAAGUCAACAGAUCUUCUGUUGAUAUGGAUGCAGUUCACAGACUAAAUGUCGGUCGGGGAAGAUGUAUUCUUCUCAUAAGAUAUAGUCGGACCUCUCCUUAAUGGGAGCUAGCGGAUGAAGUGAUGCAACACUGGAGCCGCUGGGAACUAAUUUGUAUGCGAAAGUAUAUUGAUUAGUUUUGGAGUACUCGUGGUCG
condition.label: 30 °C
readout.type: self-splicing fitness (ln)
Give only the figure.

Examples with their reported self-splicing fitness (ln) follow.
{"input.sequence": "AAACAGCAAUAUUACGACAG", "self-splicing fitness (ln)": -1.5}
{"input.sequence": "AGGGAGCAAUAUUACGCAUA", "self-splicing fitness (ln)": -2.22}
{"input.sequence": "AGGCAGCAAUAUUACGUUCA", "self-splicing fitness (ln)": -0.538}
{"input.sequence": "GCAAAGCAAUAUUACGGUUA", "self-splicing fitness (ln)": -0.938}
{"input.sequence": "UCUGAGCAAUAUUACGUAAC", "self-splicing fitness (ln)": -3.44}

Query (sequence): CCGAAGCAAUAUUACGCGUU ; field requested: self-splicing fitness (ln)
-4.01

Query (sequence): UGCGAGCAAUAUUACGGGCA ; field requested: self-splicing fitness (ln)
-2.84

Query (sequence): UAUGAGCAAUAUUACGUAAU ; field requested: self-splicing fitness (ln)
-2.35

---

test.summary: self-splicing fitness, log relative to wild type (ln ratio); higher = more splicing; Tetrahymena group I intron in knt gene, E. coli kanamycin selection, DiMSum; sequences stand for … in CUCUCU…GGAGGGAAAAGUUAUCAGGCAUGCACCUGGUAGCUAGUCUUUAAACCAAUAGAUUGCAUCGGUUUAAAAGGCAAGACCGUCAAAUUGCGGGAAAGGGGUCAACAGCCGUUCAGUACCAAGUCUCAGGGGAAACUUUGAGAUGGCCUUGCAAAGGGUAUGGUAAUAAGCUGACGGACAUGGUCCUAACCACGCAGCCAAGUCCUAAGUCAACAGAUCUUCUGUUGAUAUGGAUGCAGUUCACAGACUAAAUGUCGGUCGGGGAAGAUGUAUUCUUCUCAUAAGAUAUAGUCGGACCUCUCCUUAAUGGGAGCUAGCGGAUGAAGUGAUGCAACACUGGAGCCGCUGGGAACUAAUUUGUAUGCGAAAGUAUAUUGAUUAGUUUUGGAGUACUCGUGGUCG
condition.label: 30 °C
self-splicing fitness (ln) for assorted sequences
Give only the figure.

Examples with their reported self-splicing fitness (ln) follow.
{"input.sequence": "ACCGAGCAAUAUUACGGUCA", "self-splicing fitness (ln)": -1.22}
{"input.sequence": "CAAAAGCAAUAUUACGGUGU", "self-splicing fitness (ln)": -4.34}

Query (sequence): CGUAAGCAAUAUUACGCUGA ; field requested: self-splicing fitness (ln)
-3.48

Query (sequence): UCGAAGCAAUAUUACGUUAU ; field requested: self-splicing fitness (ln)
-4.01

Query (sequence): GCUAAGCAAUAUUACGGAUC ; field requested: self-splicing fitness (ln)
-0.406

Query (sequence): UUAGAGCAAUAUUACGUAGG ; field requested: self-splicing fitness (ln)
-2.7

Query (sequence): CCAGAGCAAUAUUACGGGGA ; field requested: self-splicing fitness (ln)
-3.06

Query (sequence): GAGCAGCAAUAUUACGUGGU ; field requested: self-splicing fitness (ln)
-3.66

Query (sequence): CUACAGCAAUAUUACGGUAC ; field requested: self-splicing fitness (ln)
-2.81

Query (sequence): UUCUAGCAAUAUUACGGCAU ; field requested: self-splicing fitness (ln)
-1.81

Query (sequence): CUAUAGCAAUAUUACGGGGA ; field requested: self-splicing fitness (ln)
-2.58

Query (sequence): CGGAAGCAAUAUUACGUUCU ; field requested: self-splicing fitness (ln)
-1.91

Query (sequence): UCUGAGCAAUAUUACGAGGG ; field requested: self-splicing fitness (ln)
-4.14

Query (sequence): CAGAAGCAAUAUUACGGCAC ; field requested: self-splicing fitness (ln)
-3.44

Query (sequence): CGUUAGCAAUAUUACGCGAG ; field requested: self-splicing fitness (ln)
-2.42

Query (sequence): GACCAGCAAUAUUACGCCUU ; field requested: self-splicing fitness (ln)
-0.277
